# System: Myzus persicae
# assayName: Insecticidal activity against Myzus persicae (green peach aphid) infested Brassica campestris stems followed by cut stem exposure to test compound assessed as insect mortality at 1 ppm measured 5 days post compound treatment by systemic exposure test
# Format: functional
# assaySetup: 120 h
readoutType: mortality at 1 ppm (%)

querySmiles | systemUnderTest | valueObserved
Cc1cc(C)c(C2=C(O)C(C)(C)N(OCC3CCCCC3)C2=O)c(C)c1 | Myzus persicae | 60
Cc1cc(C)c(C2=C(O)C(C)(C)N(OCc3ccccc3)C2=O)c(C)c1 | Myzus persicae | 0
CON1C(=O)C(c2c(C)cc(C)cc2C)=C(OC(=O)CC(C)(C)C)C1(C)C | Myzus persicae | 0
CSCON1C(=O)C(c2c(C)cc(C)cc2C)=C(O)C1(C)C | Myzus persicae | 90
CCCON1C(=O)C(c2c(C)cc(C)cc2C)=C(O)C1(C)C | Myzus persicae | 90
C#CCON1C(=O)C(c2c(C)cc(C)cc2C)=C(O)C1(C)C | Myzus persicae | 100
Cc1cc(C)c(C2=C(OC(=O)CC(C)(C)C)C(C)(C)N(OC(=O)CC(C)(C)C)C2=O)c(C)c1 | Myzus persicae | 0
Cc1cc(C)c(C2=C(OC(=O)CC(C)(C)C)C(C)(C)N(OS(C)(=O)=O)C2=O)c(C)c1 | Myzus persicae | 0
CCON1C(=O)C(c2c(C)cc(C)cc2C)=C(O)C1(C)C | Myzus persicae | 100
Cc1cc(C)c(C2=C(O)C(C)(C)N(O)C2=O)c(C)c1 | Myzus persicae | 100
CCOCON1C(=O)C(c2c(C)cc(C)cc2C)=C(OC(=O)CC(C)(C)C)C1(C)C | Myzus persicae | 100
COCCOCON1C(=O)C(c2c(C)cc(C)cc2C)=C(O)C1(C)C | Myzus persicae | 100
CC(=O)ON1C(=O)C(c2c(C)cc(C)cc2C)=C(OC(=O)CC(C)(C)C)C1(C)C | Myzus persicae | 0
C=CCON1C(=O)C(c2c(C)cc(C)cc2C)=C(O)C1(C)C | Myzus persicae | 100
CON1C(=O)C(c2c(C)cc(C)cc2C)=C(O)C1(C)C | Myzus persicae | 100
COCON1C(=O)C(c2c(C)cc(C)cc2C)=C(O)C1(C)C | Myzus persicae | 100
COCCON1C(=O)C(c2c(C)cc(C)cc2C)=C(O)C1(C)C | Myzus persicae | 100
Cc1cc(C)c(C2=C(OC(=O)CC(C)(C)C)C(C)(C)N(O)C2=O)c(C)c1 | Myzus persicae | 0
Cc1cc(C)c(C2=C(OC(=O)CC(C)(C)C)C(C)(C)N(OC(=O)N(C)C)C2=O)c(C)c1 | Myzus persicae | 0
Cc1cc(C)c(C2=C(OC(=O)CC(C)(C)C)C(C)(C)N(OC(=O)C(C)(C)C)C2=O)c(C)c1 | Myzus persicae | 0
Cc1cc(C)c(C2=C(OC(=O)CC(C)(C)C)C(C)(C)N(OCC#N)C2=O)c(C)c1 | Myzus persicae | 100

====

# Test system: Nilaparvata lugens
# assayName: Insecticidal activity against Nilaparvata lugens (brown planthopper) third-instar larvae reared on rice seedlings assessed as insect mortality at 10 ppm measured 5 days post compound treatment by systemic exposure test
# Assay type: functional
# assaySetup: 120 h

querySmiles | mortality at 10 ppm, %
CON1C(=O)C(c2c(C)cc(C)cc2C)=C(O)C1(C)C | 100
C#CCON1C(=O)C(c2c(C)cc(C)cc2C)=C(O)C1(C)C | 90
Cc1cc(C)c(C2=C(OC(=O)CC(C)(C)C)C(C)(C)N(OCC#N)C2=O)c(C)c1 | 100
CSCON1C(=O)C(c2c(C)cc(C)cc2C)=C(O)C1(C)C | 100
Cc1cc(C)c(C2=C(O)C(C)(C)N(OCC3CCCCC3)C2=O)c(C)c1 | 60

====

# Tested on: Myzus persicae
# assayName: Insecticidal activity against Myzus persicae (green peach aphid) infested Brassica campestris stems followed by leaf exposure to test compound spraying assessed as insect mortality at 1 ppm measured 5 days post compound treatment by contact exposure test
# Assay type: functional
# assaySetup: 120 h
Overview of recorded mortality at 1 ppm for various compounds
readoutType: mortality at 1 ppm

querySmiles | systemUnderTest | valueObserved
COCON1C(=O)C(c2c(C)cc(C)cc2C)=C(O)C1(C)C | Myzus persicae | 0%
Cc1cc(C)c(C2=C(O)C(C)(C)N(OC(C)C)C2=O)c(C)c1 | Myzus persicae | 0%
Cc1cc(C)c(C2=C(O)C(C)(C)N(O)C2=O)c(C)c1 | Myzus persicae | 0%
CCOCON1C(=O)C(c2c(C)cc(C)cc2C)=C(OC(=O)CC(C)(C)C)C1(C)C | Myzus persicae | 100%

====

Items are presented alongside their recorded mortality at 1 ppm.
# Test system: Myzus persicae
# assayName: Insecticidal activity against Myzus persicae (green peach aphid) infested Brassica campestris stems followed by cut stem exposure to test compound assessed as insect mortality at 1 ppm measured 5 days post compound treatment by systemic exposure test
# Type: functional
# assaySetup: 120 h
readoutType: mortality at 1 ppm

querySmiles | valueObserved
COC(=O)ON1C(=O)C(c2c(C)cc(C)cc2C)=C(OC(=O)CC(C)(C)C)C1(C)C | 0%
Cc1cc(C)c(C2=C(O)C(C)(C)N(OC(C)C)C2=O)c(C)c1 | 60%
COCON1C(=O)C(c2c(C)cc(C)cc2C)=C(OC(=O)CC(C)(C)C)C1(C)C | 100%

====

# System: Cucumis sativus
# assayName: Phytotoxicity against Cucumis sativus (cucumber) exposed to compound spraying at […] measured 7 days post compound treatment by post-emergence glasshouse test
# Format: organism-based
# assaySetup: in vivo, other, 168 h
Known Phytotoxicity of a selection of compounds
readoutType: Phytotoxicity (%)

querySmiles | valueObserved
C#CCON1C(=O)C(c2c(C)cc(C)cc2C)=C(O)C1(C)C | 0
Cc1cc(C)c(C2=C(OC(=O)CC(C)(C)C)C(C)(C)N(OC(=O)N(C)C)C2=O)c(C)c1 | 0
COCCOCON1C(=O)C(c2c(C)cc(C)cc2C)=C(O)C1(C)C | 100
CSCON1C(=O)C(c2c(C)cc(C)cc2C)=C(O)C1(C)C | 0
Cc1cc(C)c(C2=C(O)C(C)(C)N(OCC3CCCCC3)C2=O)c(C)c1 | 0
Cc1cc(C)c(C2=C(OC(=O)CC(C)(C)C)C(C)(C)N(OS(C)(=O)=O)C2=O)c(C)c1 | 0
Cc1cc(C)c(C2=C(OC(=O)CC(C)(C)C)C(C)(C)N(OCC#N)C2=O)c(C)c1 | 60
CON1C(=O)C(c2c(C)cc(C)cc2C)=C(OC(=O)CC(C)(C)C)C1(C)C | 60
COCON1C(=O)C(c2c(C)cc(C)cc2C)=C(OC(=O)CC(C)(C)C)C1(C)C | 90
Cc1cc(C)c(C2=C(O)C(C)(C)N(OCc3ccccc3)C2=O)c(C)c1 | 0
Cc1cc(C)c(C2=C(O)C(C)(C)N(O)C2=O)c(C)c1 | 60
CCON1C(=O)C(c2c(C)cc(C)cc2C)=C(O)C1(C)C | 0
Cc1cc(C)c(C2=C(OC(=O)CC(C)(C)C)C(C)(C)N(OC(=O)C(C)(C)C)C2=O)c(C)c1 | 0
CCOCON1C(=O)C(c2c(C)cc(C)cc2C)=C(OC(=O)CC(C)(C)C)C1(C)C | 60
CON1C(=O)C(c2c(C)cc(C)cc2C)=C(O)C1(C)C | 60
CC(=O)ON1C(=O)C(c2c(C)cc(C)cc2C)=C(OC(=O)CC(C)(C)C)C1(C)C | 0
COCON1C(=O)C(c2c(C)cc(C)cc2C)=C(O)C1(C)C | 90
COCCON1C(=O)C(c2c(C)cc(C)cc2C)=C(O)C1(C)C | 60
Cc1cc(C)c(C2=C(OC(=O)CC(C)(C)C)C(C)(C)N(O)C2=O)c(C)c1 | 0
COC(=O)ON1C(=O)C(c2c(C)cc(C)cc2C)=C(OC(=O)CC(C)(C)C)C1(C)C | 0
Cc1cc(C)c(C2=C(O)C(C)(C)N(OC(C)C)C2=O)c(C)c1 | 0

====

mortality at 10 ppm for assorted compounds
# Tested on: Nilaparvata lugens
# assayName: Insecticidal activity against Nilaparvata lugens (brown planthopper) third-instar larvae reared on rice seedlings assessed as insect mortality at 10 ppm measured 5 days post compound treatment by systemic exposure test
# Format: functional
# assaySetup: 120 h

querySmiles | systemUnderTest | units | mortality at 10 ppm
CCOCON1C(=O)C(c2c(C)cc(C)cc2C)=C(OC(=O)CC(C)(C)C)C1(C)C | Nilaparvata lugens | % | 100
C=CCON1C(=O)C(c2c(C)cc(C)cc2C)=C(O)C1(C)C | Nilaparvata lugens | % | 100
CON1C(=O)C(c2c(C)cc(C)cc2C)=C(OC(=O)CC(C)(C)C)C1(C)C | Nilaparvata lugens | % | 90
Cc1cc(C)c(C2=C(O)C(C)(C)N(OC(C)C)C2=O)c(C)c1 | Nilaparvata lugens | % | 90
CCON1C(=O)C(c2c(C)cc(C)cc2C)=C(O)C1(C)C | Nilaparvata lugens | % | 90
Cc1cc(C)c(C2=C(OC(=O)CC(C)(C)C)C(C)(C)N(O)C2=O)c(C)c1 | Nilaparvata lugens | % | 90
COCCOCON1C(=O)C(c2c(C)cc(C)cc2C)=C(O)C1(C)C | Nilaparvata lugens | % | 100
CCCON1C(=O)C(c2c(C)cc(C)cc2C)=C(O)C1(C)C | Nilaparvata lugens | % | 100
Cc1cc(C)c(C2=C(O)C(C)(C)N(OCc3ccccc3)C2=O)c(C)c1 | Nilaparvata lugens | % | 100
COCCON1C(=O)C(c2c(C)cc(C)cc2C)=C(O)C1(C)C | Nilaparvata lugens | % | 90
COCON1C(=O)C(c2c(C)cc(C)cc2C)=C(O)C1(C)C | Nilaparvata lugens | % | 100
